- protocolNotes: Plasma levels of SA during CI therapy (HPLC)
- Assay type: in vivo, male Lewis rats
- measurementConditions: rat, plasma, sc, 400 mg/kg/day, 400 mg/kg/day CI, day 9, HPLC; read-out: plasma SA levels associated with clinical suppression of arthritis
measuredEndpoint: concentration at 216 h

Look up concentration at 216 h for this compound: CC(=O)CC(=O)CCC(=O)O 40 to 50 µM

---

- Test system: lymphocytes
- protocolNotes: Phytohemagglutinin A (PHA) assay
- Format: cell-based
- measurementConditions: Lymphocyte, read-out: concentration giving 50% inhibition, PHA assay
measuredEndpoint: IC50 (µM)
Answer in µM, number only, no unit symbol.

Query for lymphocytes: what IC50 does the record show for CC(=O)CC(=O)c1ccccc1C(=O)O [ABA, 2-acetoacetyl benzoic acid] ? 91

The origin of these recorded values is patent US5149688A.
